Each entry below lists one item and its recorded surviving fraction ratio K562 SF3B1 K700E / K562 SF3B1 WT value.
Test system: K562 SF3B1 K700E vs K562 SF3B1 WT
Assay: surviving fraction ratio K562 SF3B1 K700E / K562 SF3B1 WT (each relative to DMSO); higher = less selective killing of SF3B1 K700E cells
Conditions: 10nM; 5 days
Counter-ions that a name gives are not always drawn.
measurement name: surviving fraction ratio K562 SF3B1 K700E / K562 SF3B1 WT

1) COc1cc2nccc(Oc3ccc(NC(=O)NC4CC4)c(Cl)c3)c2cc1C(N)=O	0.755
2) O=C(O)CC[C@H]1CC[C@@](c2cc(F)ccc2F)(S(=O)(=O)c2ccc(Cl)cc2)CC1	0.805
3) COc1cccc2c1C(=O)c1c(O)c3c(c(O)c1C2=O)C[C@@](O)(C(=O)CO)C[C@@H]3O[C@H]1C[C@H](N)[C@H](O)[C@H](C)O1 [doxorubicin.HCl]	1.07
4) CN1CC[C@H](c2c(O)cc(O)c3c(=O)cc(-c4ccccc4Cl)oc23)[C@H](O)C1	0.847

---

Tested on: K562 SF3B1 K700E vs K562 SF3B1 WT
Assay: surviving fraction ratio K562 SF3B1 K700E / K562 SF3B1 WT (each relative to DMSO); higher = less selective killing of SF3B1 K700E cells
Settings: 1nM; 5 days
Record satisfied whenever surviving fraction ratio K562 SF3B1 K700E / K562 SF3B1 WT is at 0.9 or higher; record not satisfied when lower.

1) CC(=O)NCC(=O)N1[C@@H]2CC[C@H]1c1ccc(Nc3ncc(C(F)(F)F)c(NC4CCC4)n3)cc12	satisfied
2) CN(C)C/C=C/C(=O)Nc1cc2c(Nc3ccc(F)c(Cl)c3)ncnc2cc1O[C@H]1CCOC1	satisfied
3) C=CCNC1=C2C[C@@H](C)C[C@H](OC)[C@H](O)[C@@H](C)/C=C(\C)[C@H](OC(N)=O)[C@@H](OC)/C=C\C=C(/C)C(=O)NC(=CC1=O)C2=O	satisfied
4) COc1ccc(C2=N[C@@H](c3ccc(Cl)cc3)[C@@H](c3ccc(Cl)cc3)N2C(=O)N2CCNC(=O)C2)c(OC(C)C)c1	satisfied
5) CNCc1ccc(-c2[nH]c3cc(F)cc4c3c2CCNC4=O)cc1	not satisfied
6) CC[C@@H]1C(=O)N(C)c2cnc(Nc3ccc(C(=O)NC4CCN(C)CC4)cc3OC)nc2N1C1CCCC1	satisfied
7) NS(=O)(=O)OC[C@@H]1C[C@@H](n2ccc3c(N[C@H]4CCc5ccccc54)ncnc32)C[C@@H]1O	not satisfied
8) O=C(O)C1(C(=O)O)CCC1.[NH2-].[NH2-].[Pt+2]	not satisfied
9) COc1cc2nccc(Oc3ccc(NC(=O)NC4CC4)c(Cl)c3)c2cc1C(N)=O	not satisfied
10) CCN(CC)CCCCNc1ncc2cc(-c3cc(OC)cc(OC)c3)c(NC(=O)NC(C)(C)C)nc2n1	satisfied
11) Cc1ccc(-c2cc(C(F)(F)F)nn2-c2ccc(S(N)(=O)=O)cc2)cc1	not satisfied
12) CC[C@@H](C(=O)[C@@H](C)[C@@H](O)[C@H](C)[C@@H]1O[C@@H]([C@@H](CC)C(=O)O)CC[C@@H]1C)[C@H]1O[C@]2(C=C[C@@H](O)[C@]3(CC[C@@](C)([C@H]4CC[C@](O)(CC)[C@H](C)O4)O3)O2)[C@H](C)C[C@@H]1C	satisfied

---

Each entry below lists one item and its recorded surviving fraction ratio K562 SF3B1 K700E / K562 SF3B1 WT value.
Tested on: K562 SF3B1 K700E vs K562 SF3B1 WT
Assay: surviving fraction ratio K562 SF3B1 K700E / K562 SF3B1 WT (each relative to DMSO); higher = less selective killing of SF3B1 K700E cells
Conditions: 100nM; 5 days
measurement name: surviving fraction ratio K562 SF3B1 K700E / K562 SF3B1 WT

1. CN(C)CC[C@H](CSc1ccccc1)Nc1ccc(S(=O)(=O)NC(=O)c2ccc(N3CCN(Cc4ccccc4-c4ccc(Cl)cc4)CC3)cc2)cc1[N+](=O)[O-]	0.819
2. Cn1ncnc1[C@H]1c2n[nH]c(=O)c3cc(F)cc(c23)N[C@@H]1c1ccc(F)cc1 [talazoparib]	0.571
3. O=C(O)CC[C@H]1CC[C@@](c2cc(F)ccc2F)(S(=O)(=O)c2ccc(Cl)cc2)CC1	0.975
4. C[C@@H]1CN(CC(=O)Nc2ccc3c(c2)Cc2cccc(-c4cc(=O)cc(N5CCOCC5)o4)c2S3)C[C@H](C)O1	0.96

---

Test system: K562 SF3B1 K700E vs K562 SF3B1 WT
Assay: surviving fraction ratio K562 SF3B1 K700E / K562 SF3B1 WT (each relative to DMSO); higher = less selective killing of SF3B1 K700E cells
Settings: 100nM; 5 days
Where a name gives a salt, the structure may show the parent alone.
measurement name: surviving fraction ratio K562 SF3B1 K700E / K562 SF3B1 WT

1) CNC(=O)c1ccc(N2C(=S)N(c3ccc(C#N)c(C(F)(F)F)c3)C(=O)C2(C)C)cc1F	0.847
2) CCCCCCCCCCCCCCCC(=O)Nc1ccn([C@@H]2O[C@H](CO)[C@@H](O)[C@@H]2C#N)c(=O)n1 [sapacitabine]	0.745
3) COc1ccc(-c2cc3c(C)nc(N)nc3n([C@H]3CC[C@H](OCCO)CC3)c2=O)cn1	0.868
4) Cc1nc(Nc2n[nH]c3c2CN(C(=O)N[C@H](CN(C)C)c2ccccc2)C3(C)C)c2sccc2n1	1.69
5) CC/C(=C(\c1ccc(O)cc1)c1ccc(OCCN(C)C)cc1)c1ccccc1 [4-OH-tamoxifen]	0.923
6) COc1cc2ncnc(Nc3ccc(F)c(Cl)c3)c2cc1OCCCN1CCOCC1 [gefitinib]	0.802
7) CCCS(=O)(=O)Nc1ccc(F)c(C(=O)c2c[nH]c3ncc(Cl)cc23)c1F	0.998
8) CNCc1ccc(-c2[nH]c3cc(F)cc4c3c2CCNC4=O)cc1	0.794
9) C#Cc1cccc(Nc2ncnc3cc(OCCOC)c(OCCOC)cc23)c1 [erlotinib]	0.788
10) CC[C@@H](C(=O)[C@@H](C)[C@@H](O)[C@H](C)[C@@H]1O[C@@H]([C@@H](CC)C(=O)O)CC[C@@H]1C)[C@H]1O[C@]2(C=C[C@@H](O)[C@]3(CC[C@@](C)([C@H]4CC[C@](O)(CC)[C@H](C)O4)O3)O2)[C@H](C)C[C@@H]1C [salinomycin]	0.831
11) C[C@]1(O)C[C@@H](c2nc(-c3ccc4ccc(-c5ccccc5)nc4c3)c3c(N)nccn32)C1	0.795
12) CC(=O)c1c(C)c2cnc(Nc3ccc(N4CCNCC4)cn3)nc2n(C2CCCC2)c1=O	0.882
13) COCC[n+]1c2c(n(Cc3cnccn3)c1C)C(=O)c1ccccc1C2=O	0.899
14) CC[C@@H]1C(=O)N(C)c2cnc(Nc3ccc(C(=O)NC4CCN(C)CC4)cc3OC)nc2N1C1CCCC1	2.99
15) COc1cc([C@@H]2c3cc4c(cc3[C@@H](O[C@@H]3O[C@@H]5CO[C@@H](C)O[C@H]5[C@H](O)[C@H]3O)[C@H]3COC(=O)[C@H]23)OCO4)cc(OC)c1O [etoposide]	1.01
16) C[C@@H](Oc1cc(-c2cnn(C3CCNCC3)c2)cnc1N)c1c(Cl)ccc(F)c1Cl	0.542
17) CN1CC[C@H](c2c(O)cc(O)c3c(=O)cc(-c4ccccc4Cl)oc23)[C@H](O)C1 [Flavopiridol]	0.929
18) CS(=O)(=O)CCNCc1ccc(-c2ccc3ncnc(Nc4ccc(OCc5cccc(F)c5)c(Cl)c4)c3c2)o1 [lapatinib]	0.906
19) CCc1cc(Nc2nccc(-c3c(-c4ccc(OC)c(C(=O)Nc5c(F)cccc5F)c4)nc4ccccn34)n2)c(OC)cc1N1CCC(N2CCN(S(C)(=O)=O)CC2)CC1	0.805
20) NS(=O)(=O)OC[C@@H]1C[C@@H](n2ccc3c(N[C@H]4CCc5ccccc54)ncnc32)C[C@@H]1O	1.51
21) Cc1nc(Nc2ncc(C(=O)Nc3c(C)cccc3Cl)s2)cc(N2CCN(CCO)CC2)n1 [dasatinib]	1.42
22) Cc1ccc(-c2cc(C(F)(F)F)nn2-c2ccc(S(N)(=O)=O)cc2)cc1 [celecoxib]	0.736
23) COc1cccc2c1C(=O)c1c(O)c3c(c(O)c1C2=O)C[C@@](O)(C(=O)CO)C[C@@H]3O[C@H]1C[C@H](N)[C@H](O)[C@H](C)O1 [doxorubicin.HCl]	0.446
24) COc1cc2ncnc(Nc3ccc(F)c(Cl)c3)c2cc1NC(=O)/C=C/CN1CCCCC1	0.945
25) CCn1c(C(=O)N(C2CC2)C2CC2)cc2c3c(ncn3C)c(Nc3cc(C)n(C)n3)nc21	0.801
26) CN(C)C/C=C/C(=O)Nc1cc2c(Nc3ccc(F)c(Cl)c3)ncnc2cc1O[C@H]1CCOC1	0.679
27) CN1CCN(c2nc(C3=C(c4c[nH]c5ccccc45)C(=O)NC3=O)c3ccccc3n2)CC1 [Sotrastaurin/AEB071]	0.979
28) C[C@]12CC[C@H](O)CC1=CC[C@@H]1[C@@H]2CC[C@]2(C)C(c3cccnc3)=CC[C@@H]12	1.01
